- assay.info: n-Octanol/water partition coefficient, log P of the compound after 2 hrs by HPLC method
- Type: physicochemical
Below, each entry is listed alongside its reported logP at 2 h.

INSERT INTO results (compound_smiles, observed_result) VALUES
  ('Cc1cc(/C=C/C#N)cc(C)c1Oc1cc(N)nc(NCCn2ccc(=O)[nH]c2=O)n1', 1.21);

Next compound, please.
The compound identified as `Cc1cc(C#N)cc(C)c1Oc1ccnc(NCCn2ccc(=O)[nH]c2=O)n1` registered its logP at 2 h at -0.11

----------
- assay.info: Cytotoxicity against human MT4 cells after 5 days by MTT assay
- Assay type: cell-based
Each item that follows carries a reported CC50 at 120 h.
All answers are understood in µM, so give the number only.

INSERT INTO assay_data (compound_smiles, scale_unit, observed_result) VALUES
  ('Cc1cc(C=CC#N)cc(C)c1Oc1cc(NCCn2ccc(=O)[nH]c2=O)nc(Cl)n1', 'µM', 26.2),
  ('Cc1cc(C#N)cc(C)c1Oc1cc(N)nc(NCCn2ccc(=O)[nH]c2=O)n1', 'µM', 204),
  ('Cc1cc(C#N)cc(C)c1Oc1cc(NCCn2ccc(=O)[nH]c2=O)nc(Cl)n1', 'µM', 27.9);

The compound identified as `Cc1cc(C#N)cc(C)c1Oc1ccnc(NCCn2ccc(=O)[nH]c2=O)n1` registered its CC50 at 120 h at 35.8
